These measurements were taken from PubChem BioAssay AID1963959.

- System: T-47D spheroids with HUVEC/MSC, viability
- measurement description: Anticancer human tumor T-47D cell line growth inhibition [PI3K];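 further: spheroids exposed to agents for seven days before reading; percent of DMSO vehicle control luminescence so 100% = untreated growth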
- experimental parameters: second compound 0.00316 µM; first compound 0.1 µM; active compounds read low
measurement label: viability, T/C (%)
Return type: number; implicit unit %.

Give viability, T/C for this entry on T-47D spheroids with HUVEC/MSC, viability: CCCS(=O)(=O)Nc1ccc(F)c(C(=O)c2c[nH]c3ncc(-c4ccc(Cl)cc4)cc23)c1F + CC(Nc1ccc2c(c1)OCCn1cc(N3C(=O)OCC3C(F)F)nc1-2)C(N)=O
87.8

Give viability, T/C for this entry on T-47D spheroids with HUVEC/MSC, viability: C[C@@H](NC(=O)c1ncnc(N)c1Cl)c1ncc(C(=O)Nc2cc(C(F)(F)F)c(Cl)cn2)s1 + CC(Nc1ccc2c(c1)OCCn1cc(N3C(=O)OCC3C(F)F)nc1-2)C(N)=O
92.2

Give viability, T/C for this entry on T-47D spheroids with HUVEC/MSC, viability: CC(Cn1ccc(-c2ccc(C#N)c(Cl)c2)n1)NC(=O)c1cc(C(C)O)[nH]n1 (stereo not drawn) + CC(Nc1ccc2c(c1)OCCn1cc(N3C(=O)OCC3C(F)F)nc1-2)C(N)=O
91.2
